testedOn: Adenosine receptor A1 (Homo sapiens) (UniProt P30542)
assayDetails: Binding affinity to recombinant human A1 adenosine receptor allosteric site expressed in CHO cells assessed as [3H]DPCPX Bmax shift at 10 uM after 90 mins relative to control
Assay type: cell-based
reportedEndpoint: fold change (FC)

Nc1scc(CN2CCN(c3cccc(F)c3F)CC2)c1C(=O)c1ccc(Cl)cc1: 1
Nc1scc(CN2CCN(c3cccc(F)c3)CC2)c1C(=O)c1ccc(Cl)cc1: 1
Nc1scc(CN2CCN(c3ccc(Cl)cc3F)CC2)c1C(=O)c1ccc(Cl)cc1: 1
Nc1scc(CN2CCN(c3cc(F)ccc3F)CC2)c1C(=O)c1ccc(Cl)cc1: 1
Nc1scc(CN2CCN(c3cccc(Cl)c3Cl)CC2)c1C(=O)c1ccc(Cl)cc1: 1
Nc1scc(CN2CCN(Cc3ccc(F)cc3)CC2)c1C(=O)c1ccc(Cl)cc1: 0.9
Cc1sc(N)c(C(=O)c2cccc(C(F)(F)F)c2)c1C: 1
Nc1scc(CN2CCC(c3ccc(Cl)cc3)CC2)c1C(=O)c1ccc(Cl)cc1: 1
Nc1scc(CN2CCN(c3cc(F)cc(F)c3)CC2)c1C(=O)c1ccc(Cl)cc1: 1.1
Nc1scc(CN2CCN(c3ccc(Cl)cc3Cl)CC2)c1C(=O)c1ccc(Cl)cc1: 1

* * *

testedOn: Adenosine receptor A1 (Homo sapiens) (UniProt P30542)
assayDetails: Allosteric enhancer activity at recombinant human A1 adenosine receptor expressed in CHO cells assessed as change in forskolin-induced cAMP production at 1 uM after 6 mins by radioimmunoassay
Type: functional, cell-based
reportedEndpoint: Activity (%)

Example results:
Nc1scc(CN2CCN(c3cccc(F)c3)CC2)c1C(=O)c1cccc(C(F)(F)F)c1: -35
Nc1scc(CN2CCN(c3ccc(F)cc3Cl)CC2)c1C(=O)c1ccc(Cl)cc1: -39

a. Nc1scc(CN2CCN(c3cc(Cl)ccc3Cl)CC2)c1C(=O)c1ccc(Cl)cc1
b. Nc1scc(CN2CCN(c3ccc([N+](=O)[O-])cc3)CC2)c1C(=O)c1ccc(Cl)cc1
Which of the two gives a bigger number for Activity: a or b ? Lab log: write the label of the selected item as the result.
b
(b: -8.3%, a: -42%)

* * *

testedOn: Adenosine receptor A1 (Homo sapiens)
Sequence (whole entry): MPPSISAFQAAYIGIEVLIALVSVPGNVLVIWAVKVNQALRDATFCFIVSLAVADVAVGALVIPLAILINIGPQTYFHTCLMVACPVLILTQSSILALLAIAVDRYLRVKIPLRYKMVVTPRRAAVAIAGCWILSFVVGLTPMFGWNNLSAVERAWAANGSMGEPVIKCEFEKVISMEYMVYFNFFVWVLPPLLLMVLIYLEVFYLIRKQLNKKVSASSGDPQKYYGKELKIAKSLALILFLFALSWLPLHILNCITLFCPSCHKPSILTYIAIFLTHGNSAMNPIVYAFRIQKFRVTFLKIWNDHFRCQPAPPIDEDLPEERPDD
assayDetails: Binding affinity to recombinant human A1 adenosine receptor allosteric site expressed in CHO cells assessed as [3H]DPCPX Bmax shift at 10 uM after 90 mins relative to control
Format: cell-based
reportedEndpoint: fold change (FC)

Nc1scc(CN2CCN(c3ccc(F)c(F)c3)CC2)c1C(=O)c1ccc(Cl)cc1: 1.1
CC(C)N1CCN(Cc2csc(N)c2C(=O)c2ccc(Cl)cc2)CC1: 0.9
Nc1scc(CN2CCN(C(=O)c3ccc(Cl)cc3)CC2)c1C(=O)c1ccc(Cl)cc1: 0.9
Nc1scc(CN2CCN(c3ccc(F)cc3Cl)CC2)c1C(=O)c1ccc(Cl)cc1: 1.1
Nc1scc(CN2CCN(c3cc(Cl)cc(Cl)c3)CC2)c1C(=O)c1ccc(Cl)cc1: 1
Nc1scc(CN2CCN(c3cccc(C(F)(F)F)c3)CC2)c1C(=O)c1ccc(Cl)cc1: 1
Nc1scc(CN2CCN(c3ccncc3)CC2)c1C(=O)c1ccc(Cl)cc1: 0.9
Nc1scc(CN2CCN(c3cccc4ccccc34)CC2)c1C(=O)c1ccc(Cl)cc1: 0.9
Nc1scc(CN2CCN(c3ccc(F)cc3F)CC2)c1C(=O)c1ccc(Cl)cc1: 1
Nc1scc(CN2CCN(C3CCCCCC3)CC2)c1C(=O)c1ccc(Cl)cc1: 0.9
Nc1scc(CN2CCN(CCc3ccc(Cl)cc3)CC2)c1C(=O)c1ccc(Cl)cc1: 1
COc1ccc(N2CCN(Cc3csc(N)c3C(=O)c3ccc(Cl)cc3)CC2)cc1: 0.9
Nc1scc(CN2CCN(c3c(Cl)cccc3Cl)CC2)c1C(=O)c1ccc(Cl)cc1: 0.9
Nc1scc(CN2CCN(c3cc(Cl)ccc3Cl)CC2)c1C(=O)c1ccc(Cl)cc1: 0.9
Nc1scc(CN2CCN(C3CCCC3)CC2)c1C(=O)c1ccc(Cl)cc1: 0.9
Nc1scc(CN2CCN(Cc3ccc(Cl)cc3)CC2)c1C(=O)c1ccc(Cl)cc1: 1
Nc1scc(CN2CCN(c3ccc(Cl)c(Cl)c3)CC2)c1C(=O)c1ccc(Cl)cc1: 1
Nc1scc(CN2CCN(c3ccc(C(F)(F)F)cc3)CC2)c1C(=O)c1cccc(C(F)(F)F)c1: 1
Nc1scc(CN2CCN(c3c(F)cccc3F)CC2)c1C(=O)c1ccc(Cl)cc1: 1.1
Nc1scc(CN2CCN(c3ccc(Cl)c(C(F)(F)F)c3)CC2)c1C(=O)c1ccc(Cl)cc1: 1

* * *

testedOn: Adenosine receptor A1 (Homo sapiens) (UniProt P30542)
assayDetails: Allosteric enhancer activity at recombinant human A1 adenosine receptor expressed in CHO cells assessed as change in forskolin-induced cAMP production at 10 uM after 6 mins by radioimmunoassay
Format: functional, cell-based
reportedEndpoint: Activity (%)

Example results:
Nc1scc(CN2CCN(Cc3ccc(F)cc3)CC2)c1C(=O)c1ccc(Cl)cc1: -82
Nc1scc(CN2CCN(c3ccc(Cl)cc3Cl)CC2)c1C(=O)c1ccc(Cl)cc1: -74
Nc1scc(CN2CCN(c3ccc(Cl)cc3F)CC2)c1C(=O)c1ccc(Cl)cc1: -81
Nc1scc(CN2CCN(c3ccccc3Cl)CC2)c1C(=O)c1ccc(Cl)cc1: -18

A. Nc1scc(CN2CCN(c3ccccc3F)CC2)c1C(=O)c1ccc(Cl)cc1
B. Nc1scc(CN2CCN(CCCc3ccc(Cl)cc3)CC2)c1C(=O)c1ccc(Cl)cc1
C. Nc1scc(CN2CCN(c3ccc(C(F)(F)F)cc3)CC2)c1C(=O)c1cccc(C(F)(F)F)c1
D. Nc1scc(CN2CCN(C3CCCC3)CC2)c1C(=O)c1ccc(Cl)cc1
E. CC(C)N1CCN(Cc2csc(N)c2C(=O)c2ccc(Cl)cc2)CC1
Rank the 5 compounds: largest Activity first, smallest last. Thanks in advance for listing the labels in the requested order.
E, A, D, C, B

1. Nc1scc(CN2CCN(c3cccc(F)c3F)CC2)c1C(=O)c1ccc(Cl)cc1
2. Nc1scc(CN2CCN(c3cccnc3)CC2)c1C(=O)c1ccc(Cl)cc1
Which of the two gives a bigger number for Activity: 1 or 2 ? Lab log: write the label of the selected item as the result.
2

a. Nc1scc(CN2CCN(Cc3ccc(Cl)cc3)CC2)c1C(=O)c1ccc(Cl)cc1
b. Nc1scc(CN2CCN(c3c(Cl)cccc3Cl)CC2)c1C(=O)c1ccc(Cl)cc1
c. Nc1scc(CN2CCN(C3CCCCCC3)CC2)c1C(=O)c1ccc(Cl)cc1
d. Nc1scc(CN2CCN(c3ccncc3)CC2)c1C(=O)c1ccc(Cl)cc1
Rank the 4 compounds: largest Activity first, smallest last. Thanks in advance for listing the labels in the requested order.
d, c, b, a

* * *

testedOn: Adenosine receptor A1 (Homo sapiens)
Sequence (whole entry): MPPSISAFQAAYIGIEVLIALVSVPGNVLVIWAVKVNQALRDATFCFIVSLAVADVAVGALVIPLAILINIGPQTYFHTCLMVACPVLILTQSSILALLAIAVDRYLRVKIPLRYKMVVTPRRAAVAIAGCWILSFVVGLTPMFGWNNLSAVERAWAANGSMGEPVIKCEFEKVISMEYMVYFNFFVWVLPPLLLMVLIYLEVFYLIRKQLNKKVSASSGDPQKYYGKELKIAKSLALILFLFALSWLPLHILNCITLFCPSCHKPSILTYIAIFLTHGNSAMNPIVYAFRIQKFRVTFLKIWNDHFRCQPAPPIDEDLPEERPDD
assayDetails: Allosteric enhancer activity at recombinant human A1 adenosine receptor expressed in CHO cells assessed as change in forskolin-induced cAMP production at 0.01 uM after 6 mins by radioimmunoassay
Assay type: functional, cell-based
reportedEndpoint: Activity (%)

Nc1scc(CN2CCN(C(=O)Cc3ccc(Cl)cc3)CC2)c1C(=O)c1ccc(Cl)cc1: 2.1

a. Nc1scc(CN2CCN(c3cc(F)ccc3F)CC2)c1C(=O)c1ccc(Cl)cc1
b. Nc1scc(CN2CCN(CCc3ccc(Cl)cc3)CC2)c1C(=O)c1ccc(Cl)cc1
c. Nc1scc(CN2CCN(c3cccc(F)c3F)CC2)c1C(=O)c1ccc(Cl)cc1
Rank the 3 compounds: largest Activity first, smallest last. Thanks in advance for listing the labels in the requested order.
a, b, c
(a: 3.1%, b: 1.2%, c: -13%)
